Every entry's value here was drawn from ChEMBL document CHEMBL3611981.

# assay: Half life in human microsomes at 1 uM in presence of NADPH
reported endpoint: half-life at 1 µM (h)
State the answer as a number, implicitly in h.

O=C(Cn1cnc([N+](=O)[O-])n1)Nc1cccc(-c2ccccc2)c1 = 1.06

Shift focus to the following entry.
Ask | Give recorded half-life at 1 µM. COc1ccc2c(c1)[C@]13CCCC[C@@H]1[C@H](C2)N(C)CC3
Reply | 1.54

---

# System: Trypanosoma brucei rhodesiense
# assay: Antiparasitic activity against trypomastigote stage of Trypanosoma brucei rhodesiense STIB 900 assessed as parasite growth inhibition after 72 hrs by Alamar blue assay
# Assay type: functional, organism-based
# assay conditions: STIB 900, 72 h
Here, each record is paired with measured log10(IC50) data.
Answers are given as log10 of IC50 in µM.

O=C(Cn1cnc([N+](=O)[O-])n1)Nc1cccc(OCc2ccccc2)c1 = 0.69
O=C(Cn1cnc([N+](=O)[O-])n1)NC1CCN(Cc2ccccc2)CC1 = 1.08

Ask | Answer with reported log10(IC50) of O=C(Cn1cnc([N+](=O)[O-])n1)Nc1ccc(Oc2ccccc2)cc1
Reply | 0.43

Ask | Query log10(IC50) for O=C(Cn1ccnc1[N+](=O)[O-])Nc1ccc(Oc2ccc(Cl)cc2)cc1
Reply | 0.41

Ask | Give the measured log10(IC50) for O=C(Cn1ccnc1[N+](=O)[O-])Nc1ccc(Oc2ccccc2)cc1
Reply | 1.18

Ask | Item O=C(Cn1cnc([N+](=O)[O-])n1)Nc1ccc(Oc2ccc(Cl)cc2)cc1 : provide log10(IC50)
Reply | 0.11

Ask | Using the record for O=C(Cn1ccnc1[N+](=O)[O-])Nc1ccc(Oc2ccc(F)cc2)cc1 , state its measured log10(IC50).
Reply | 1.11

Ask | Dear colleague, please send me the reported log10(IC50) for O=C(Cn1cnc([N+](=O)[O-])n1)Nc1ccc(Oc2ccc(F)cc2)cc1 when you can.
Reply | 0.30

Ask | Please look at this compound and report its log10(IC50): O=C(Cn1cnc([N+](=O)[O-])n1)Nc1ccc(Cc2ccccc2)cc1
Reply | 0.32

Ask | Consider the compound O=C(Cn1cnc([N+](=O)[O-])n1)Nc1nccc(-c2ccccc2)n1 . State its measured log10(IC50).
Reply | 2.14

Ask | Give reported log10(IC50) value for O=C(Cn1cncn1)Nc1ccc(Oc2ccc(Cl)cc2)cc1
Reply | 1.41

---

# assay: Efflux ratio of apparent permeability across basolateral to apical side over apical to basolateral side in human Caco2 cells after 2 hrs
# assay conditions: Caco-2
Entries and their efflux ratio at 2 h values follow.

CC(C)NCC(O)COc1cccc2ccccc12 (configuration not stated) = 3.1

Let us examine a further case.
Ask | Input CC(C)NCC(O)COc1ccc(CC(N)=O)cc1 (configuration not stated) , output reported efflux ratio at 2 h.
Reply | 3.7

---

# assay: Selectivity index, ratio of IC50 for rat L6 cells to IC50 for axenic amastigote stage of Leishmania donovani MHOM-ET-67/L82
reported endpoint: selectivity ratio
Please give the numeric answer without any surrounding text.

The following molecules have reported results that may help.
O=C(Cn1ccnc1[N+](=O)[O-])Nc1ccc(Oc2ccc(F)cc2)cc1 = 418
O=C(Cn1cnc([N+](=O)[O-])n1)Nc1ccc(Cc2ccccc2)cc1 = 31
O=C(Cn1cncn1)Nc1ccc(Oc2ccc(Cl)cc2)cc1 = 5

Ask | Return reported selectivity ratio. Input molecule: O=C(Cn1cnc([N+](=O)[O-])n1)Nc1ccc(Oc2ccc(F)cc2)cc1
Reply | 384

Ask | Given O=C(Cn1ccnc1[N+](=O)[O-])Nc1ccc(Oc2ccc(Cl)cc2)cc1 , respond with its selectivity ratio.
Reply | 937

Ask | For the molecule O=C(Cn1ccnc1[N+](=O)[O-])Nc1ccc(Oc2ccccc2)cc1 , give its reported selectivity ratio.
Reply | 79

Ask | For the molecule O=C(Cn1cnc([N+](=O)[O-])n1)Nc1ccc(-c2ccc(Cl)cc2)cc1 , give its reported selectivity ratio.
Reply | 738

Ask | Note selectivity ratio for the molecule shown: O=C(Cn1cnc([N+](=O)[O-])n1)Nc1ccc(Oc2ccc(Cl)cc2)cc1
Reply | 853

Ask | Please supply the value of reported selectivity ratio for the item O=C(Cn1cnc([N+](=O)[O-])n1)Nc1ccc(Oc2ccccc2)cc1
Reply | 339

Ask | Using known records, supply selectivity ratio for O=C(Cn1cnc([N+](=O)[O-])n1)Nc1cccc(OCc2ccccc2)c1
Reply | 20

---

# Test system: Trypanosoma cruzi
# assay: Potency index, ratio of benznidazole IC50 to compound IC50 for amastigote stage of Trypanosoma cruzi Tulahuen C4 infected in rat L6 cells
# Assay type: functional
Note to self: Ratio IC50 under 20 means Condition met, ties and anything higher get Condition not met.

Ask | Does the reported Ratio IC50 of the following compound sit strictly below 20? O=C(Cn1ccnc1[N+](=O)[O-])Nc1ccc(Oc2ccccc2)cc1
Reply | Condition met

Ask | Strictly below 20: is that where Ratio IC50 of O=C(Cn1cnc([N+](=O)[O-])n1)NC1CCN(Cc2ccccc2)CC1 sits?
Reply | Condition met

Ask | Does the reported Ratio IC50 of O=C(Cn1cnc([N+](=O)[O-])n1)Nc1cccc(OCc2ccccc2)c1 stay below 20?
Reply | Condition met

Ask | Please check: Ratio IC50 for O=C(Cn1cnc([N+](=O)[O-])n1)Nc1ccc(Cc2ccccc2)cc1 , strictly under 20 or not?
Reply | Condition not met

Ask | Does the reported Ratio IC50 of the following compound sit strictly below 20? O=C(Cn1cnc([N+](=O)[O-])n1)Nc1ccc(Oc2ccc(Cl)cc2)cc1
Reply | Condition not met

Ask | Hi there! Is Ratio IC50 for O=C(Cn1ccnc1[N+](=O)[O-])Nc1ccc(Oc2ccc(Cl)cc2)cc1 below 20, do you know?
Reply | Condition met

Ask | For O=C(Cn1ccnc1[N+](=O)[O-])Nc1ccc(Oc2ccc(F)cc2)cc1 , is the recorded Ratio IC50 below the cut-off of 20?
Reply | Condition met

Ask | Quick check: Ratio IC50 of O=C(Cn1cnc([N+](=O)[O-])n1)Nc1ccc(Oc2ccc(F)cc2)cc1 under 20?
Reply | Condition not met

Ask | # check: Ratio IC50 < 20 for O=C(Cn1cnc([N+](=O)[O-])n1)Nc1nccc(-c2ccccc2)n1
Reply | Condition met

Ask | Does this compound meet the criterion Ratio IC50 < 20? O=C(Cn1cnc([N+](=O)[O-])n1)Nc1ccc(-c2ccc(Cl)cc2)cc1
Reply | Condition not met

Ask | Hello, I'm reviewing records and need to know if Ratio IC50 of O=C(Cn1cnc([N+](=O)[O-])n1)Nc1ccc(Oc2ccccc2)cc1 is below 20. Could you check?
Reply | Condition not met

---

Catalogue of Drug metabolism readings, one per entry.
# assay: Prodrug conversion assessed as Trypanosoma brucei recombinant His-tagged type-1 nitroreductase-mediated drug metabolism by measuring NADH oxidation after 5 mins by spectrophotometric analysis
# Type: ADME
# assay conditions: isolated protein
Give your result in nmol/min/mg as a bare value.

Please review the following examples before continuing.
O=C(Cn1cnc([N+](=O)[O-])n1)Nc1ccc(Oc2ccccc2)cc1 = 2931
O=C(Cn1cnc([N+](=O)[O-])n1)Nc1ccc(Oc2ccc(F)cc2)cc1 = 2702
O=C(Cn1cnc([N+](=O)[O-])n1)Nc1ccc(Oc2ccc(Cl)cc2)cc1 = 2699
O=C(Cn1ccnc1[N+](=O)[O-])NCc1ccccc1 = 1540
O=C(Cn1ccnc1[N+](=O)[O-])Nc1ccc(Oc2ccc(Cl)cc2)cc1 = 3337

Now take the following compound into account.
Ask | Name the recorded Drug metabolism of the compound listed here: O=C(Cn1cnc([N+](=O)[O-])n1)Nc1ccc(-c2ccc(Cl)cc2)cc1
Reply | 2492

---

# assay: Prodrug conversion assessed as Trypanosoma cruzi recombinant type-1 nitroreductase-mediated drug metabolism by measuring NADH oxidation after 5 mins by spectrophotometric analysis
# Assay type: ADME
# assay conditions: isolated protein
Below: a set of entries, each annotated with reported Drug metabolism.
All answers are understood in nmol/min/mg, so give the number only.

Known Drug metabolism results, listed for orientation:
O=C(Cn1ccnc1[N+](=O)[O-])Nc1ccc(Oc2ccc(Cl)cc2)cc1 = 817
O=C(Cn1ccnc1[N+](=O)[O-])NCc1ccccc1 = 680
O=C(Cn1cnc([N+](=O)[O-])n1)Nc1ccc(Oc2ccccc2)cc1 = 815
O=C(Cn1cnc([N+](=O)[O-])n1)Nc1ccc(Oc2ccc(F)cc2)cc1 = 516
O=C(Cn1cnc([N+](=O)[O-])n1)Nc1ccc(-c2ccc(Cl)cc2)cc1 = 585

Consider the additional molecule presented here.
Ask | For O=C(Cn1cnc([N+](=O)[O-])n1)Nc1ccc(Oc2ccc(Cl)cc2)cc1 , write its Drug metabolism.
Reply | 628

---

# assay: Selectivity index, ratio of IC50 for rat L6 cells to IC50 for trypomastigote stage of Trypanosoma brucei rhodesiense STIB 900
Give YES when the value for selectivity ratio is at least 10. Give NO when it is less.

O=C(Cn1cnc([N+](=O)[O-])n1)Nc1ccc(Oc2ccc(Cl)cc2)cc1 = YES
O=C(Cn1cnc([N+](=O)[O-])n1)NC1CCN(Cc2ccccc2)CC1 = NO
O=C(Cn1ccnc1[N+](=O)[O-])Nc1ccc(Oc2ccc(F)cc2)cc1 = NO
O=C(Cn1cnc([N+](=O)[O-])n1)Nc1ccc(-c2ccc(Cl)cc2)cc1 = YES
O=C(Cn1cnc([N+](=O)[O-])n1)Nc1ccc(Cc2ccccc2)cc1 = YES

From here, focus on the item given below.
Ask | Decide: selectivity ratio of O=C(Cn1cnc([N+](=O)[O-])n1)Nc1nccc(-c2ccccc2)n1 >= 10?
Reply | NO
